Here we list molecules with their recorded pIC50 when tested on Neprilysin (Rattus norvegicus).
Sequence (P07861 whole entry): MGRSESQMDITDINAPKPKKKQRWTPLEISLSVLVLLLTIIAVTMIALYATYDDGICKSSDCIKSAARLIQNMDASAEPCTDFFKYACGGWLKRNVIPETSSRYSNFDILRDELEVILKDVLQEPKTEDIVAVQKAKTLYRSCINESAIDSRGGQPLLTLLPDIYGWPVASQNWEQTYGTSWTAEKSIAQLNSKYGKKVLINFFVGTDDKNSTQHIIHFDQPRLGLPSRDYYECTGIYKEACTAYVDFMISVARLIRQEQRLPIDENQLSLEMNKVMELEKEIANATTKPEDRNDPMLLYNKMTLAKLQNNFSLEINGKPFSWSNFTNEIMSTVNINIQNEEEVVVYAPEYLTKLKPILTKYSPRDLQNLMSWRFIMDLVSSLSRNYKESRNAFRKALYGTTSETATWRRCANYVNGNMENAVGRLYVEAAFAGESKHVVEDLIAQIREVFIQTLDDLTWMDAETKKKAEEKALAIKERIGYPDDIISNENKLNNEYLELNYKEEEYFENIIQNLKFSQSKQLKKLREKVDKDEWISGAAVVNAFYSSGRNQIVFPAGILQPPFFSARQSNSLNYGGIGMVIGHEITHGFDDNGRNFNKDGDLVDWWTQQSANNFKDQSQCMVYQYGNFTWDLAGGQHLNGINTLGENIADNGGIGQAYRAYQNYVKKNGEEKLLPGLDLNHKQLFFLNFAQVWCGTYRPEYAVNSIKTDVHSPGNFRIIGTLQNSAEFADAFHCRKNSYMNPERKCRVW
pIC50: −log10 of the molar value.

Assay Neprilysin (Rattus norvegicus), sample O=C(O)CCNC(=O)C(Cc1ccccc1)CP(=O)(O)OCCc1ccccc1 (stereo not drawn) , pIC50 read: < 6.00

pIC50 value, target or system Neprilysin (Rattus norvegicus), for CCOP(=O)(CNC(Cc1ccc(-c2ccccc2)cc1)C(=O)NCCC(=O)O)OCC (stereo not drawn) : < 6.00

# input for lookup
The reported Neprilysin (Rattus norvegicus) pIC50 of O=C(O)CCNC(=O)C(Cc1ccccc1)OP(=O)(O)CNC(=O)OCc1ccccc1 (stereo not drawn) is < 6.00
